Values from paper PMC8301423

molecular target: bovine serum albumin (BSA) (Bos taurus); construct: BSA, molecular weight of 66 kDa, 583 residues; purchased Sigma Aldrich Chemicals (Taufkirchen, Germany); assay: High hydrostatic pressure fluorescence titration of ANS with BSA (1-2000 bar); assay type: binding; details: Binding constant Kb1, 250 mM Mg(ClO4)2, 5 °C, 1 bar
PROPERTY_LABEL: Kd (µM)

INSERT INTO measurements (compound, recorded_value) VALUES
  ('O=S(=O)(O)c1cccc2cccc(Nc3ccccc3)c12 [ANS, 8-anilinonaphthalene-1-sulfonic acid]', 5.26);

---

target: bovine serum albumin (BSA) (Bos taurus); construct: BSA, molecular weight of 66 kDa, 583 residues; purchased Sigma Aldrich Chemicals (Taufkirchen, Germany); assay: Steady-state fluorescence titration of ANS with BSA at ambient pressure (binding isotherms); settings: Binding constant Kb1, 250 mM MgSO4, 15 °C, 1 bar, 10 mM Tris-HCl pH 7.4
PROPERTY_LABEL: Kd (nM)

INSERT INTO assay_data (smiles_notation, property_label, recorded_value) VALUES
  ('O=S(=O)(O)c1cccc2cccc(Nc3ccccc3)c12', 'Kd', 2560);

---

Target: bovine serum albumin (BSA) (Bos taurus, UniProt P02769)
Construct: BSA, molecular weight of 66 kDa, 583 residues; purchased Sigma Aldrich Chemicals (Taufkirchen, Germany)
Sequence (P02769 25-607): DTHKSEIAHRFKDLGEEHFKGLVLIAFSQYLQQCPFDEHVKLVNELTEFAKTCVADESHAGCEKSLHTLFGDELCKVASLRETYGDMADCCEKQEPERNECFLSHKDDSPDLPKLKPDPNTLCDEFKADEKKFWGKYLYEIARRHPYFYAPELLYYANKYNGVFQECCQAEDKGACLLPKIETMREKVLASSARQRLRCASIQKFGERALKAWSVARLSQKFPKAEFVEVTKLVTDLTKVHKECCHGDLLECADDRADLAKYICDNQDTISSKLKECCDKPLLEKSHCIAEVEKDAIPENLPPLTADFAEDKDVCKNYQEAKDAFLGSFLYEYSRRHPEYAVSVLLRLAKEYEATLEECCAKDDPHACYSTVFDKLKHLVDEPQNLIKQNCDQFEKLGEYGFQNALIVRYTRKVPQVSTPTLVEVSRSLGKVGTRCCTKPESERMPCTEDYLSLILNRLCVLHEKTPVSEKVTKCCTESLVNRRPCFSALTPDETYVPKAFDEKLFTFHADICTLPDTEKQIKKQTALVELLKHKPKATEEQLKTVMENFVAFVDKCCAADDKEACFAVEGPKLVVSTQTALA
Assay: High hydrostatic pressure fluorescence titration of ANS with BSA (1-2000 bar)
Assay type: binding
Details: Binding constant Kb2, 250 mM Mg(ClO4)2, 25 °C, 1500 bar
Method: The extent of complex formation between ANS and BSA was followed by means of steady-state fluorescence spectroscopy using a K2 fluorometer from ISS, Inc. (Champaign, IL, USA). […] In the next step, we explored the impact of high hydrostatic pressure (HHP) on the binding of ANS to BSA in the presence of the three salts and in the temperature range between 5 and 25 °C. To this end, we performed the same titration experiments following the complex formation by means of HHP fluorescence spectroscopy. […]
PROPERTY_LABEL: Kd

INSERT INTO results (compound, property_label, recorded_value) VALUES
  ('O=S(=O)(O)c1cccc2cccc(Nc3ccccc3)c12 [ANS, 8-anilinonaphthalene-1-sulfonic acid]', 'Kd', '833 nM');

---

biological target: bovine serum albumin (BSA) (Bos taurus, UniProt P02769); construct: BSA, molecular weight of 66 kDa, 583 residues; purchased Sigma Aldrich Chemicals (Taufkirchen, Germany); experiment: High hydrostatic pressure fluorescence titration of ANS with BSA (1-2000 bar); type: binding; conditions: Binding constant Kb1, 250 mM MgSO4, 25 °C, 1500 bar
pKd: −log10 of the molar value.
PROPERTY_LABEL: pKd

INSERT INTO results (smiles_notation, tested_on, recorded_value) VALUES
  ('O=S(=O)(O)c1cccc2cccc(Nc3ccccc3)c12', 'bovine serum albumin (BSA) (Bos taurus, UniProt P02769)', 6.38);
